Molecular target: T1, PSMA Fab (biotinylated (site not stated))
T1 construct: Biotinylated PSMA Fab captured on neutravidin coated plates in the phage ELISA; also called Anti-PSMA Fab; 006 PSMA Fab
Assay: clonal phage ELISA on biotinylated PSMA Fab captured on neutravidin, anti-M13 HRP detection;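 also: crude clonal phage supernatants added to wells pretreated with PSMA antigen in blocking buffer or with blocking buffer only, then briefly incubated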
measured-endpoint: Phage binding ELISA signal, Anti-PSMA Fab
The answer should be a number; do not append a unit.

Consider the reported Phage binding ELISA signal, Anti-PSMA Fab for these binders:
# binder, reported
measured = [
    ("TEIRCQPQWMCHGF [Phage-3594]", 1.6),
    ("PDPLCVPNWMCIGL [Phage-3593]", 1.6),
    ("WEVRCEPAWMCIGL [Phage-3600]", 1.59),
    ("QGVACIPTWMCTGF [Phage-3595]", 1.59),
]

stdin: Item MPGACVPLWMCYGF [Phage-3590] has what recorded Phage binding ELISA signal, Anti-PSMA Fab?
stdout: 1.6

stdin: Item VETLCRPAWMCWGF [Phage-3598] has what recorded Phage binding ELISA signal, Anti-PSMA Fab?
stdout: 1.59
